biological target: Nuclear receptor coactivator 3 (Homo sapiens); test: SRC3 coactivator transcriptional activity inhibitors, confirmation, cell-based, luminescence, quadruplicate (AID 588792); settings: HEK293 GAL4-SRC3 luciferase reporter, at 3.6 µM;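 further: 0% = DMSO treated cells and 100% = gossypol at 36 µM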
Activity calls are given as the source filed them.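 How the source made its calls: active means mean inhibition over 43.08%, the solvent-only control mean plus 3 SD; inactive means the rest.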
Outcomes: active, inactive

# SMILES STRING, CLASS ASSIGNMENT
measured = [
    ("COc1cc(OC)cc(-c2nn[nH]n2)c1", "inactive"),
    ("CCCc1ccc(C(=O)O/N=C(\\N)c2ccccn2)cc1", "inactive"),
    ("CCC(NC(=O)Nc1nnc(C(F)(F)F)s1)(C(F)(F)F)C(F)(F)F", "active"),
    ("CC1CCN(c2ccc(-c3cccs3)nn2)CC1", "inactive"),
    ("CCOc1ccc(-n2c(-c3ccccc3)c[n+]3c2CCCCC3)cc1", "inactive"),
    ("Nc1nc(CCl)nc(Nc2cccc3ccccc23)n1", "inactive"),
]

----------
biological target: Nuclear receptor coactivator 2 (Homo sapiens) (UniProt Q15596); test: SRC2 coactivator transcriptional activity inhibitors, confirmation, cell-based, luminescence, HEK293, triplicate (AID 652008); conditions: HEK293 GAL4-SRC2 luciferase reporter, at 8.9 µM, stronger effect = higher value;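 further: 0% = DMSO-treated cells and 100% = Gossypol at 36 µM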
Sequence (Q15596 whole entry, looked up, the tested form may be a part): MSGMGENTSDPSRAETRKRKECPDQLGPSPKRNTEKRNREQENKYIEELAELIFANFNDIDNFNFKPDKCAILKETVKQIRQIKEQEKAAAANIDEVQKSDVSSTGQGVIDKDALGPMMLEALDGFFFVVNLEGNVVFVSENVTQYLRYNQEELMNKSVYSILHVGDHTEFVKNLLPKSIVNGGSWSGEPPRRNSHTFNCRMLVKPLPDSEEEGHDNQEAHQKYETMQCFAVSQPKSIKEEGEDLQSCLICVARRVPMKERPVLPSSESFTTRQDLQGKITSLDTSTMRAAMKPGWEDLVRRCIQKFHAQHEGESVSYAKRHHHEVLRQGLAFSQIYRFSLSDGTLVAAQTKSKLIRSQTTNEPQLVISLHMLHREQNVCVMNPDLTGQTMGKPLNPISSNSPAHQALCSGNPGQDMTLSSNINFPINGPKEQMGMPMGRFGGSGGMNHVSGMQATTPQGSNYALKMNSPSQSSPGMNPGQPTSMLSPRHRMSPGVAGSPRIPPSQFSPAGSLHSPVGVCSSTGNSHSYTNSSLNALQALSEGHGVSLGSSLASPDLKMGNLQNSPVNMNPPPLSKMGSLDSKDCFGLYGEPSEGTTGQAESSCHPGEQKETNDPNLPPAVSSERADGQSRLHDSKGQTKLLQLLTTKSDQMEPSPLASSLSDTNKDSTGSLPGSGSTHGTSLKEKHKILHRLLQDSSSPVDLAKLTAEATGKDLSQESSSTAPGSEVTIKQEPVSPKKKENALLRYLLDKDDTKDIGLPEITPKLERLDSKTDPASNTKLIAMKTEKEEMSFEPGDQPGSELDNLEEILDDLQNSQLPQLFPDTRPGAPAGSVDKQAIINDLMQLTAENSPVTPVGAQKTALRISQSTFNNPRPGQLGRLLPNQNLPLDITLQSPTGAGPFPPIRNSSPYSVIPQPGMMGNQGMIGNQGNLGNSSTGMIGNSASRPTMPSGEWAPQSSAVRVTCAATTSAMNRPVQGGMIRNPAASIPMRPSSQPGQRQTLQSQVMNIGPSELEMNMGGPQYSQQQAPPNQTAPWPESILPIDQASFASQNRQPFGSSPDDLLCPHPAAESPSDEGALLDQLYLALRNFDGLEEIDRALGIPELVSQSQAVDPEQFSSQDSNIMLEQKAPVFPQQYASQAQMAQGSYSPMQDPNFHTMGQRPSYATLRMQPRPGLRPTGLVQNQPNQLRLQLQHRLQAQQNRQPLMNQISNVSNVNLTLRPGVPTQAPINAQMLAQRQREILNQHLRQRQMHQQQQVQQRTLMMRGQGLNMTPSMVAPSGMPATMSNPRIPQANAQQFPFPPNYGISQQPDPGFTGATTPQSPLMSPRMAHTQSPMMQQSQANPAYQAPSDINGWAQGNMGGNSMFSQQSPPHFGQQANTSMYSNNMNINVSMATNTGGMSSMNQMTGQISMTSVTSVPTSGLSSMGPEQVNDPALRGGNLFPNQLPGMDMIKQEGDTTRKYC
Decision: inhibition >= 50% yields label 1, all other cases yield label 0.

# COMPOUND, TARGET UNDER TEST, CLASS ASSIGNMENT
rows = [
    ("Cc1ccc(N(C(=O)CCl)C(C(=O)NC2CCCCC2)c2cccnc2)cc1C (configuration not stated)", "Nuclear receptor coactivator 2 (Homo sapiens) (UniProt Q15596)", "label 1"),
    ("O=C(CN1C(=O)c2ccccc2S1(=O)=O)N1CCc2ccccc21", "Nuclear receptor coactivator 2 (Homo sapiens) (UniProt Q15596)", "label 1"),
    ("Cc1cc(N)ccc1-n1nc2ccccc2n1", "Nuclear receptor coactivator 2 (Homo sapiens) (UniProt Q15596)", "label 0"),
    ("CCOc1c(Br)cc(CNc2ccc3c(c2)OCCO3)cc1OC", "Nuclear receptor coactivator 2 (Homo sapiens) (UniProt Q15596)", "label 0"),
    ("O=C(O)c1ccc(N/N=C/c2ccc3nccnc3c2)cc1", "Nuclear receptor coactivator 2 (Homo sapiens) (UniProt Q15596)", "label 1"),
    ("CCCCc1ccc(N/C(N)=N/c2nc(C)cc(C)n2)cc1", "Nuclear receptor coactivator 2 (Homo sapiens) (UniProt Q15596)", "label 0"),
    ("COC(=O)CCCNC(=O)CCc1nnc(-c2ccc(-c3ccccc3)cc2)o1", "Nuclear receptor coactivator 2 (Homo sapiens) (UniProt Q15596)", "label 1"),
    ("COc1cccc(N(C(=O)CCl)C(C(=O)NCCc2ccccc2)c2cccs2)c1 (configuration not stated)", "Nuclear receptor coactivator 2 (Homo sapiens) (UniProt Q15596)", "label 1"),
    ("Cc1c(C=O)n(C)n(-c2ccccc2)c1=O", "Nuclear receptor coactivator 2 (Homo sapiens) (UniProt Q15596)", "label 0"),
    ("C(=N\\Nc1ccc2ccccc2n1)/c1ccc2c(c1)OCCO2", "Nuclear receptor coactivator 2 (Homo sapiens) (UniProt Q15596)", "label 1"),
]

----------
assay: E. coli viability inhibition, counter-screen for RecBCD inhibitor project, absorbance, high throughput (AID 651983); details: absorbance (OD) growth, at 11.9 µM, stronger effect = higher value;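 further: E. coli strain V66 grown with compound alone and no phage infection; 0% = bacteria with DMSO vehicle only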
Some of the results follow. Active and inactive are the calls of the source. Rule as the data show it: active = inhibition above about 20%; inactive = the rest.
TEST READOUT: inhibition

# COMPOUND, RESULT VALUE
rows = [
    ("C=CC1=C(C(=O)O)N2C(=O)[C@@H](NC(=O)/C(=N/OCC(=O)O)c3csc(N)n3)[C@H]2SC1", "101% (active)"),
    ("CN1CCN(c2cc3c(cc2F)c(=O)c(C(=O)O)cn3CCF)CC1", "103% (active)"),
    ("C=C1c2c(Cl)ccc(O)c2C(O)=C2C(=O)[C@]3(O)C(O)=C(C(N)=O)C(=O)[C@@H](N(C)C)[C@@H]3[C@@H](O)C12 (stereo not given in full)", "105% (active)"),
    ("O=C(CSc1ccc(-c2ccccn2)nn1)Nc1ccccc1", "1.79% (inactive)"),
    ("Cc1ccc(-c2cnc(C(O)c3cc(Cl)cc(Cl)c3)[nH]2)cc1 (stereo not given)", "16.9% (inactive)"),
    ("CC(C)(C)C(=O)Nc1c(Br)c(C2CC2)nn1-c1ccccc1", "-0.19% (inactive)"),
    ("ON=C1/C(=N\\O)CC2(C/C1=N/O)OCCO2", "4.59% (inactive)"),
    ("Cn1ccc(=Nc2ccc(NC(=O)c3ccc(N=c4ccn(C)c5ccc([N+](=O)[O-])cc45)cc3)cc2)cc1", "-7.32% (inactive)"),
    ("Cc1cn(C2C=CC(CO)O2)c(=O)[nH]c1=O (stereo not given)", "8.16% (inactive)"),
    ("C=CC1=C(C(=O)O)N2C(=O)[C@@H](NC(=O)/C(=N\\OCC(=O)O)c3csc(N)n3)[C@H]2SC1", "104% (active)"),
]

----------
system: transactivating tegument protein VP16 (Human herpesvirus 1); assay: VP16 transactivation reporter inhibitors, counter-screen for SRC2 inhibitor project, cell-based, luminescence, single concentration (AID 652007); settings: cell-based VP16 transactivation luciferase reporter, at 8.9 µM, stronger effect = higher value
Calls of active or inactive are those of the source. Cut-off read from the data, not from the text of the source: active = inhibition above about 36%; inactive = the rest.
Measured inhibition by item

# COMPOUND, inhibition
measured = [
    ("CCCN1C(=O)C2C(C(=O)Nc3cccc(OC)c3)C3C=CC2(O3)C1C(=O)NC1CCCCC1 (stereo not given)", "-13.7% (inactive)"),
    ("Nc1ccc2c(c1)C(=O)C(=O)c1ccccc1-2", "97% (active)"),
    ("CC1CCc2nc(NC(=O)c3ccco3)sc2C1 (stereo not given)", "-23.2% (inactive)"),
    ("C(=N\\Nc1nc2ccccc2s1)/c1ccccn1", "49.5% (active)"),
    ("Cc1cccc(C)c1NC(=O)C[n+]1cc(-c2ccccc2)n2c1CCC2", "-22.3% (inactive)"),
    ("CC(O)CC(=O)OC[C@]12CC[C@H]3[C@@](C)(CC[C@H]4C(C)(C)CCC[C@]34C)[C@@H]1CC(C1=CC(=O)OC1O)O2 (stereo not given in full)", "50.6% (active)"),
    ("O=C(OCc1ccccc1)c1ccc(NCc2cc(O)ccc2O)cc1", "94.5% (active)"),
    ("CNC1=C(N(C(C)=O)c2ccc(Br)cc2)C(=O)c2ccccc2C1=O", "18.5% (inactive)"),
    ("O=C(c1ccccc1)N1CCN(c2ncnc3sc4c(c23)CCC4)CC1", "19.7% (inactive)"),
    ("CCc1ccc(/C=C2\\SC(=S)N(CCC(=O)NC3=NCCS3)C2=O)cc1", "-67.3% (inactive)"),
]

----------
test: StAR promoter reporter inhibitors, counter-screen for LRH-1 inverse agonist project, cell-based, luminescence, high throughput (AID 651611); details: StAR promoter luciferase reporter counterscreen, at 3.6 µM, stronger effect = higher value
Category | rule: reported inhibition within range, see LOW = under 8%, MID = from 8% up to 50%, HIGH = 50% and over

# COMPOUND, CLASS ASSIGNMENT
data = [
    ("N#CC(c1cccc(Cl)c1)c1ccc2c(C(F)(F)F)cc(C(F)(F)F)nc2n1 (stereo unspecified)", "HIGH"),
    ("CC(C)(C)c1ccc(-c2cn(-c3ccc(Br)cc3)c3[n+]2CCCS3)cc1", "MID"),
    ("CC1CCC2(CC1)NC(=O)N(CC(=O)Nc1ccc3c(c1)OCCCO3)C2=O (stereo unspecified)", "MID"),
    ("CC(=NNC(=S)N1CCN(C2CCCCCC2)CC1)c1ccccn1", "HIGH"),
    ("CN1CCN(c2nc(-c3ccccc3O)nc3ccccc23)CC1", "LOW"),
    ("c1ccc2c(c1)CCN(c1ncnc3c1[nH]c1ccccc13)C2", "MID"),
    ("c1ccc(-c2csc3ncnc(NCC4COc5ccccc5O4)c23)cc1 (stereo unspecified)", "MID"),
    ("CCCc1nnc2n1N=C(c1ccc(OC)c(OC)c1)CS2", "LOW"),
    ("CCOc1ccc(NC(=O)CSc2nncc(=O)[nH]2)cc1", "MID"),
    ("CCn1c(CN2CCN(c3ccc(Cl)cc3)CC2)nc2ccccc21", "LOW"),
    ("CC(=NNC(=S)Nc1ccccc1)c1ccccn1", "HIGH"),
]

----------
assay: StAR promoter reporter inhibitors, counter-screen for LRH-1 inverse agonist project, cell-based, luminescence, high throughput (AID 651611); conditions: StAR promoter luciferase reporter counterscreen, at 3.6 µM
The source made the active and inactive calls. Cut-off read from the data, not from the text of the source: active = inhibition above about 28%; inactive = the rest.
Outcomes: y = active, n = inactive

# COMPOUND, CLASS ASSIGNMENT
records = [
    ("Cc1c(OCC(=O)NCCCN2CCOCC2)ccc2c(-c3ccccc3)cc(=O)oc12", "n"),
    ("CCOc1ccc(CCNC(=O)COC(=O)CCC(=O)c2cccs2)cc1OCC", "n"),
    ("Cc1cc(-n2c(C)cc(C(=O)CSc3ncnc4ccccc34)c2C)no1", "n"),
    ("N#Cc1cc2c(nc1SCC(=O)N1CCOCC1)CCCCC2", "n"),
    ("COc1cccc(C(=O)N/N=C2/SCC(=O)N2CCc2ccc(OC)c(OC)c2)c1", "n"),
    ("c1ccc2c(c1)CC1(CCCC1)n1nnnc1-2", "n"),
    ("COc1cccc(-c2nc(NCC3CCCO3)c3ccccc3n2)c1O (stereo unspecified)", "y"),
    ("COc1ccc(NC(=O)c2cc(-c3cc(F)ccc3OC)n[nH]2)cc1OC", "y"),
    ("COc1cccc(/C=N/NC(=O)c2ccc(-c3ccccc3)cc2)c1O", "y"),
    ("COc1ccc(N2C(=O)C(Cl)=C(N3CCOCC3)C2=O)cc1", "n"),
    ("O=C1c2cccc3cc([N+](=O)[O-])cc(c23)C(=O)N1CCN1CCCC1", "n"),
]
